FYI, the data here is from PubChem BioAssay AID2052.

test: murine CD8 T cell vesicle adhesion modulation – mouse 2C CD8+ T cells, flow cytometry, primary screen (AID 2052); details: 2C CD8+ T cell-vesicle binding, at 7 µM, stronger effect = lower value; measured here: CD8+ vesicle-bound cell fraction
Among all 330,000 compounds or so, about 220 (0.067%) were called active. Only a selection was taken, and actives are over-represented in it overall.
Please respond with MET when measured double positive events is strictly beneath 20%, and with NOT MET in all other cases.

Example entries begin here.
>  <COMPOUND>
CC(/C=C/C1(O)C(C)CC(=O)CC1(C)C)OC1OC(CO)C(O)C(O)C1O (configuration not stated)

>  <CLASS LABEL>
NOT MET

$$$$
>  <COMPOUND>
CCOc1cc(C2C(C(=O)OC(C)C)=C(C)NC3=C2C(=O)CCC3)cc([N+](=O)[O-])c1O (configuration not stated)

>  <CLASS LABEL>
NOT MET

$$$$
>  <COMPOUND>
Cc1nn(CCOc2ccc(Br)cc2)c(C)c1[N+](=O)[O-]

>  <CLASS LABEL>
NOT MET

$$$$
>  <COMPOUND>
CCCn1nnnc1NCc1ccc(OC)cc1

>  <CLASS LABEL>
NOT MET

$$$$
>  <COMPOUND>
O=C(Nc1ccc(N2CCCCC2)cc1)c1cc(S(=O)(=O)N2CCOCC2)ccc1F

>  <CLASS LABEL>
NOT MET

$$$$

Query :: Is the reported double positive events for CC1(C)CC(CNCCC(c2ccc(F)cc2)c2ccco2)CCO1 (configuration not stated) strictly below 20%?
Result :: NOT MET

Query :: Check if double positive events falls below 20% for CCc1nnc(NC(=O)CSc2nc(SC)ns2)s1 .
Result :: NOT MET

Query :: Regarding COc1ccc(N2CC(C(=O)N[C@@H](C)C(=O)N3CCCCC3)CC2=O)cc1 (some centres not stated) , kindly confirm whether its double positive events is beneath 20%.
Result :: MET

Query :: Please let me know if O=C(CSc1ccc(-c2ccccn2)nn1)Nc1ccccc1 shows double positive events below 20%.
Result :: MET

Query :: Dear reviewer, please state whether C1=C(N2CCOCC2)/C(=C/c2nc3ccccc3[nH]2)CC1 has double positive events strictly beneath 20%.
Result :: NOT MET

Query :: Please indicate whether the reported double positive events of COP1(=O)C[C@@H](O)[C@@H](O)[C@@H](COCc2ccccc2)O1 (some centres not stated) is strictly below 20%.
Result :: NOT MET

Query :: Determine if O=C(CCc1nnc2ccc(NCc3ccco3)nn12)Nc1cc(F)ccc1F shows double positive events strictly lower than 20%.
Result :: NOT MET

Query :: I'd appreciate it if you could check whether Nc1ccc(OCC(O)C[n+]2ccc(CCS(=O)(=O)[O-])cc2)cc1 (configuration not stated) has double positive events smaller than 20%.
Result :: NOT MET

Query :: Take the compound CC(Oc1ccc(Br)cc1)C(=O)NCC(c1ccco1)N1CCCCC1 (configuration not stated) and say whether its double positive events is less than 20%.
Result :: NOT MET

Query :: Is the reported double positive events for Cc1ccc(-c2csc(NC(=O)C3=COCCO3)n2)cc1C strictly below 20%?
Result :: NOT MET

Query :: Does the reported double positive events of the following compound sit strictly below 20%? CCOc1ccc(S(=O)(=O)NCc2ccc3c(c2)OCO3)cc1C
Result :: NOT MET

Query :: Would you kindly verify if double positive events of C=CC[C@@H](CC(=O)N[C@@H](CO)Cc1ccccc1)C(=O)NCCOC(=O)[C@@H](CC=C)CC(=O)OC(C)(C)C is strictly less than 20%?
Result :: MET

Query :: Take the compound COc1ccc(CNc2nnnn2C)cc1 and say whether its double positive events is less than 20%.
Result :: MET

Query :: Quick check: double positive events of CCCCCCCC(=O)OC(CN1CCCCCC1)CN1CCCC1=O (configuration not stated) under 20%?
Result :: MET

Query :: Does this compound meet the criterion double positive events < 20%? COc1ccccc1OCCn1c(SCC(N)=O)nc2ccccc21
Result :: MET

Query :: Say whether its double positive events is strictly beneath 20%. Entry: CCc1ccccc1NC(=O)[C@@H]1CCC(=O)N1C1OC(=O)c2c1ccc(OC)c2OC (some centres not stated)
Result :: MET

Query :: Determine if Cc1c(NC(=S)NC(=O)CCc2ccccc2)c(=O)n(-c2ccccc2)n1C shows double positive events strictly lower than 20%.
Result :: MET
